Biological target: DLL4 extracellular domain (R&D systems, catalog #1506-D4/CF) (UniProt Q9NR61 27-529, limits assumed)
Sequence (Q9NR61 27-529 limits assumed): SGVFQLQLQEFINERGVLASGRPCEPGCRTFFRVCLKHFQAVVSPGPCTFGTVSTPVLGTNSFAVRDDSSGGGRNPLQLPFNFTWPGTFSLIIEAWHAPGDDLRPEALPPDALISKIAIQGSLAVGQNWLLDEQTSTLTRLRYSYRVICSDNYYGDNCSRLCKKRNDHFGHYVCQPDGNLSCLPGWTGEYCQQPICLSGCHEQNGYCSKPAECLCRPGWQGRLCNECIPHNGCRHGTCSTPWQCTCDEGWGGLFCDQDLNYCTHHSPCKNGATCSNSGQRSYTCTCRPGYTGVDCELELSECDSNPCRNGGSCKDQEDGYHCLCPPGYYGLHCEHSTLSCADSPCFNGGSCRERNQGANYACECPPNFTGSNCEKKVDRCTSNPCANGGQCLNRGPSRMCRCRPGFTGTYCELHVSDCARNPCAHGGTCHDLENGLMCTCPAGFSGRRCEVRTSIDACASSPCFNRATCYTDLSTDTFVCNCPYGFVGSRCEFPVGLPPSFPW
Experiment: cell-based or functional assay
% inhibition 1 µg/ml, AVERAGE (HUVEC proliferation on coated DLL4) by entry:

See these solved cases before continuing.
| binder | value_reported |
| --- | --- |
| 4B4 (antibody, IgG4, V domains shown, Fully human; used for IgG4 rows and where no isotype is printed; also called 4B4 IgG4; 4B4.1) VH: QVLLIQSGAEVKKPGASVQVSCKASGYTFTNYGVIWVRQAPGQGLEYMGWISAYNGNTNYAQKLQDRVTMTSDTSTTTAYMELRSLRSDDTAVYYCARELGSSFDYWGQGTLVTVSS VL: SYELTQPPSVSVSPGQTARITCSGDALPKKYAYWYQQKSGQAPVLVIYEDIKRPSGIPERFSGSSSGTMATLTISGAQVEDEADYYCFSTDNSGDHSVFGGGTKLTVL | 93% |
| 4B3 (antibody, IgG4, V domains shown, Fully human; also used where no isotype is printed) VH: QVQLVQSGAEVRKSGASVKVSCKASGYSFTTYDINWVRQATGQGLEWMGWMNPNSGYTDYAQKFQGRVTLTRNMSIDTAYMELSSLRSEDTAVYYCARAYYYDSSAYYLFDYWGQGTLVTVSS VL: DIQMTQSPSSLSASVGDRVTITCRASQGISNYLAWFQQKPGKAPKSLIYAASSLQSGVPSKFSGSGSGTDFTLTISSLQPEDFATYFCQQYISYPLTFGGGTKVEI | 31% |

Here's the next entry for you.
Incoming: Tell me the measured % inhibition 1 µg/ml, AVERAGE (HUVEC proliferation on coated DLL4) of 1E4 (antibody, IgG2, V domains shown, Fully human; also used where no isotype is printed) VH: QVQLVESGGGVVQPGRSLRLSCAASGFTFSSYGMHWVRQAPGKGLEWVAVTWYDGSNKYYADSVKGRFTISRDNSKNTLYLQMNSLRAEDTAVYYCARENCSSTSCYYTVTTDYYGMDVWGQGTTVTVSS VL: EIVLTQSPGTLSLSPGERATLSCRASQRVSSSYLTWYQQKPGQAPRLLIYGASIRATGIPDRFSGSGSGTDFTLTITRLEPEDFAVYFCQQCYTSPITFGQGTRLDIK , please.
Outgoing: 74%
